# reported TGI; entries follow
Test system: OVCAR-4 ovarian
Test: NCI tumour cell line growth inhibition, 48 h
Where a SMILES comes first, the peptide text is derived from it. Bridges are numbered along the chain shown (N, C = ends). [ ]: non-standard residue; d: D form. aThr = C[C@H](O)[C@H](N)C(=O)O

[
  {
    "COMPOUND": "Cc1cc(C)c(-c2no/c(=N\\S(=O)(=O)c3ccc(Cl)cc3)o2)c(C)c1",
    "OBSERVATION_TYPE": "TGI",
    "RESULT_VALUE": "> 100 µM"
  },
  {
    "COMPOUND": "COc1ccc2ccccc2c1C1=NC(C)(C)CO1",
    "OBSERVATION_TYPE": "TGI",
    "RESULT_VALUE": "> 100 µM"
  },
  {
    "COMPOUND": "CC(C)C[C@@H]1NC(=O)[C@@H]2CCCN2C(=O)[C@@H]2CCCN2C(=O)[C@H](CC(C)C)NC(=O)[C@H](CO)NC(=O)[C@H](CCCCN)NC(=O)[C@H]([C@H](C)O)NC(=O)[C@@H]2CSSC[C@@H](NC1=O)C(=O)N[C@@H](Cc1ccccc1)C(=O)N1CCC[C@H]1C(=O)N[C@@H](CC(=O)O)C(=O)NCC(=O)N[C@@H](CCCN=C(N)N)C(=O)N2 (cyclo(C[aThr]KSLPPL[dC]FPDGR); disulfide 1-9)",
    "OBSERVATION_TYPE": "TGI",
    "RESULT_VALUE": "> 50 µM"
  },
  {
    "COMPOUND": "O=C1c2ccccc2N2OC3(N4CCOCC4)CCCC3C12c1ccccc1 (configuration not stated)",
    "OBSERVATION_TYPE": "TGI",
    "RESULT_VALUE": "> 100 µM"
  },
  {
    "COMPOUND": "CC(=O)c1ccc(Nc2c3c(nc4ccccc24)CCCC3)cc1",
    "OBSERVATION_TYPE": "TGI",
    "RESULT_VALUE": "> 100 µM"
  }
]

Query for OVCAR-4 ovarian: what TGI does the record show for ClCCOCCn1cnc2c(Cl)nc(Cl)nc21 ?
35.5 µM

Repeat for the following compound: NNc1nnc(CCCCCCCCc2nnc(NN)n2N)n1N
> 100 µM

FYI, the data here is from PubChem BioAssay (NCI).
